# Tested on: A549/ATCC NSCLC
# experimental.details: NCI-60 one-dose screen, 48 h (100 = growth as untreated, 0 = no growth, -100 = all killed)
# test.context: 10 µM unless noted
About 83,000 compounds went through this panel and 20% of them were active in at least one assay; those are over-represented in the sample as a whole.
assay.readout: growth (%)
Reply numerically in %, unit not repeated.

Summary for this compound, N#Cc1c(-c2ccccc2Cl)cc(-c2c[nH]c3ccccc23)[nH]c1=O : growth is 77.5

Next:
Form: compound = O=c1cc(-c2ccccc2)oc2cc(OCCCC[P+](c3ccccc3)(c3ccccc3)c3ccccc3)cc(O)c12 ; growth = -56

// COc1cc(CNC(=O)/C=C/c2ccc3c(c2)OCO3)ccc1OCc1cn(-c2ccc([N+](=O)[O-])cc2)nn1 : growth value = 91.6

Record Cn1cc(-c2cc(N)n3nc(-c4cn(C)c5ccccc45)cc3n2)c2cc(Cl)ccc21 , field growth: 2.54

growth for COc1c(F)ccc(C(=O)Nc2ccc3nc(NC(=O)C4CCCN(S(=O)(=O)c5ccc(Cl)cc5)C4)sc3c2)c1F (centres undefined) is 65.6

So, CC12CC[C@@H]3[C@]4(C)COC(c5c(F)cccc5F)O[C@@H]4CC[C@@]3(C)[C@@H]1CC(C1=CCOC1=O)O2 (some centres undefined) ? Its growth was 70.3

So for O=C(NN1C(=O)/C(=C/C=C/c2ccc([N+](=O)[O-])o2)SC1=S)c1ccccc1O , the logged growth turned out to be -58.2

----------
Listed here: items and their measured growth.
# Tested on: M14 melanoma
# experimental.details: NCI-60 one-dose screen, 48 h (100 = growth as untreated, 0 = no growth, -100 = all killed)
# test.context: 10 µM unless noted
Compounds without any hit were thinned out: in the full panel of roughly 83,000, 20% have a hit.
Quick note: give the figure in %, leave out the unit.

See these solved cases before continuing.
Item: O=C(O)c1ccc(-c2ccc(/C=N/NC(=O)c3[nH]c4ccc(Br)cc4c3-c3ccccc3)o2)cc1 | System: M14 melanoma | growth: 0.786

GET /values?item= O=C(N/N=C/c1ccc(-c2ccc(O)cc2)s1)c1[nH]c2ccc(Br)cc2c1-c1ccccc1 &system= M14 melanoma returns growth: 9.8

Others:
Recorded growth for CCN(CC)c1ccnc(CNCCSC(c2ccccc2)(c2ccccc2)c2ccc(C)cc2)c1 on M14 melanoma was -87.2

Simply: O=C(NNc1nc2cc(F)ccc2n2c(CN3CC4CNCC4C3)ccc12)c1ccncn1 (configuration not stated) , M14 melanoma, growth = -15.6

Entry COc1cc2c(c(OC)c1OC)C(=O)CC(c1cccc(NC(=O)c3cccc(NC(=O)[C@H](C)NC(=O)OC(C)(C)C)c3)c1)O2 (some centres not stated) under M14 melanoma had growth of 76

The compound CC1=C(C(=O)c2ccccc2)C(c2ccc(-n3cncn3)cc2)n2c(nc3ccccc32)N1 (configuration not stated) , tested on M14 melanoma, showed growth of 99.2

// returns growth for O=C(COc1ccc(NC(=O)Nc2ccc(Cl)c(Cl)c2)cc1)N=Nc1c(O)[nH]c2ccc(Br)cc12 with M14 melanoma; value = -63.8

Reported growth (M14 melanoma) for entry COc1cc(-c2cc(-c3cccc(OCC(=O)O)c3)[nH]c(=O)c2C#N)cc(OC)c1OC is 97.6
